Test: Fluorescence lifetime in DMF
Type: physicochemical
parameter: τF2, fluorescence lifetime (relative amplitude in brackets)

compound	endpoint_value
O=C([O-])c1cc(Oc2cc3c(cc2Oc2cc(C(=O)[O-])cc(C(=O)[O-])c2)C2=Nc4c5ccccc5c5[n]4[Zn][n]4c(c6ccccc6c4=NC3=N2)=NC2=NC(=N5)c3ccccc32)cc(C(=O)[O-])c1.[Na+].[Na+].[Na+].[Na+]	2.51 (85%) ns
C[n+]1cccc(Oc2ccc3c(c2)C2=NC3=Nc3c4cc(Oc5ccc[n+](C)c5)ccc4c4[n]3[Zn][n]3c(c5ccc(Oc6ccc[n+](C)c6)cc5c3=NC3=NC(=N4)c4cc(Oc5ccc[n+](C)c5)ccc43)=N2)c1.F[P-](F)(F)(F)(F)F.F[P-](F)(F)(F)(F)F.F[P-](F)(F)(F)(F)F.F[P-](F)(F)(F)(F)F	6.31 (3%) ns
C[n+]1cccc(Oc2ccc3c(c2)C2=NC3=Nc3c4cc(Oc5ccc[n+](C)c5)ccc4c4[n]3[Zn][n]3c(c5ccc(Oc6ccc[n+](C)c6)cc5c3=NC3=NC(=N4)c4cc(Oc5ccc[n+](C)c5)ccc43)=N2)c1.O=S(=O)(O)O.O=S(=O)(O)O.O=S(=O)([O-])[O-].O=S(=O)([O-])[O-]	4.93 (6%) ns
C[n+]1cccc(Oc2ccc3c(c2)C2=NC3=Nc3c4cc(Oc5ccc[n+](C)c5)ccc4c4[n]3[Zn][n]3c(c5ccc(Oc6ccc[n+](C)c6)cc5c3=NC3=NC(=N4)c4cc(Oc5ccc[n+](C)c5)ccc43)=N2)c1.[I-].[I-].[I-].[I-]	6.53 (3%) ns
NCCc1ccc(Oc2cccc3c2C2=NC3=Nc3c4ccccc4c4[n]3[Zn][n]3c(c5ccccc5c3=N2)=NC2=NC(=N4)c3ccccc32)cc1 [C15Zn]	2.96 (93%) ns
O=C([O-])c1cc(C(=O)[O-])cc(-c2cc3c(cc2-c2cc(C(=O)[O-])cc(C(=O)[O-])c2)C2=Nc4c5ccccc5c5[n]4[Zn][n]4c(c6ccccc6c4=NC3=N2)=NC2=NC(=N5)c3ccccc32)c1.[Na+].[Na+].[Na+].[Na+]	2.66 (84%) ns
O=S(=O)([O-])c1ccc2c(c1)-c1nc-2nc2[nH]c(nc3nc(nc4[nH]c(n1)c1ccccc41)-c1ccc(S(=O)(=O)[O-])cc1-3)c1ccc(S(=O)(=O)[O-])cc21.[Na+].[Na+].[Na+]	3.87 (82%) ns
C[n+]1cccc(Oc2cc3c(cc2Oc2ccc[n+](C)c2)C2=Nc4c5cc(Oc6ccc[n+](C)c6)c(Oc6ccc[n+](C)c6)cc5c5[n]4[Zn][n]4c(c6cc(Oc7ccc[n+](C)c7)c(Oc7ccc[n+](C)c7)cc6c4=NC4=NC(=N5)c5cc(Oc6ccc[n+](C)c6)c(Oc6ccc[n+](C)c6)cc54)=NC3=N2)c1.[I-].[I-].[I-].[I-].[I-].[I-].[I-].[I-]	2.84 (97%) ns
OCc1cc(CO)cc(OCCCCSC2=C(SCCCCOc3cc(CO)cc(CO)c3)C3=Nc4c5ccccc5c5[n]4[Mg][n]4c(c6ccccc6c4=NC4=NC(=N5)c5ccccc54)=NC2=N3)c1	3.39 (75%) ns

* * *

Assay: Fluorescence lifetime in DMF
Type: physicochemical
// τF1, fluorescence lifetime (relative amplitude in brackets) lookup, one value per entry
parameter: τF1, fluorescence lifetime (relative amplitude in brackets)

compound	endpoint_value
NCCc1ccc(Oc2cccc3c2C2=NC3=Nc3c4ccccc4c4[n]3[Zn][n]3c(c5ccccc5c3=N2)=NC2=NC(=N4)c3ccccc32)cc1 [C15Zn]	1.23 (7%) ns
C[n+]1cccc(Oc2ccc3c(c2)C2=NC3=Nc3c4cc(Oc5ccc[n+](C)c5)ccc4c4[n]3[Zn][n]3c(c5ccc(Oc6ccc[n+](C)c6)cc5c3=NC3=NC(=N4)c4cc(Oc5ccc[n+](C)c5)ccc43)=N2)c1.[I-].[I-].[I-].[I-]	2.38 (97%) ns
C[n+]1cccc(Oc2ccc3c(c2)C2=NC3=Nc3c4cc(Oc5ccc[n+](C)c5)ccc4c4[n]3[Zn][n]3c(c5ccc(Oc6ccc[n+](C)c6)cc5c3=NC3=NC(=N4)c4cc(Oc5ccc[n+](C)c5)ccc43)=N2)c1.F[P-](F)(F)(F)(F)F.F[P-](F)(F)(F)(F)F.F[P-](F)(F)(F)(F)F.F[P-](F)(F)(F)(F)F	2.32 (97%) ns
O=S(=O)([O-])c1ccc2c(c1)-c1nc-2nc2[nH]c(nc3nc(nc4[nH]c(n1)c1ccccc41)-c1ccc(S(=O)(=O)[O-])cc1-3)c1ccc(S(=O)(=O)[O-])cc21.[Na+].[Na+].[Na+]	1.97 (18%) ns
OCc1cc(CO)cc(OCCCCSC2=C(SCCCCOc3cc(CO)cc(CO)c3)C3=Nc4c5ccccc5c5[n]4[Mg][n]4c(c6ccccc6c4=NC4=NC(=N5)c5ccccc54)=NC2=N3)c1	1.29 (25%) ns
O=C([O-])c1cc(C(=O)[O-])cc(-c2cc3c(cc2-c2cc(C(=O)[O-])cc(C(=O)[O-])c2)C2=Nc4c5ccccc5c5[n]4[Zn][n]4c(c6ccccc6c4=NC3=N2)=NC2=NC(=N5)c3ccccc32)c1.[Na+].[Na+].[Na+].[Na+]	0.23 (16%) ns
O=C([O-])c1cc(Oc2cc3c(cc2Oc2cc(C(=O)[O-])cc(C(=O)[O-])c2)C2=Nc4c5ccccc5c5[n]4[Zn][n]4c(c6ccccc6c4=NC3=N2)=NC2=NC(=N5)c3ccccc32)cc(C(=O)[O-])c1.[Na+].[Na+].[Na+].[Na+]	0.44 (15%) ns
C[n+]1cccc(Oc2cc3c(cc2Oc2ccc[n+](C)c2)C2=Nc4c5cc(Oc6ccc[n+](C)c6)c(Oc6ccc[n+](C)c6)cc5c5[n]4[Zn][n]4c(c6cc(Oc7ccc[n+](C)c7)c(Oc7ccc[n+](C)c7)cc6c4=NC4=NC(=N5)c5cc(Oc6ccc[n+](C)c6)c(Oc6ccc[n+](C)c6)cc54)=NC3=N2)c1.[I-].[I-].[I-].[I-].[I-].[I-].[I-].[I-]	0.07 (3%) ns

* * *

Assay: Fluorescence quantum yield, comparative method
Type: physicochemical
Details: in DMF; ZnPc as reference
// ΦF, fluorescence quantum yield lookup, one value per entry

compound	ΦF, fluorescence quantum yield
O=S(=O)([O-])c1cc(S(=O)(=O)[O-])c2cc(Oc3cccc4c3C3=NC4=Nc4c5c(Oc6ccc7cc(S(=O)(=O)[O-])cc(S(=O)(=O)[O-])c7c6)cccc5c5[n]4[Zn][n]4c(c6cccc(Oc7ccc8cc(S(=O)(=O)[O-])cc(S(=O)(=O)[O-])c8c7)c6c4=NC4=NC(=N5)c5c(Oc6ccc7cc(S(=O)(=O)[O-])cc(S(=O)(=O)[O-])c7c6)cccc54)=N3)ccc2c1.[Na+].[Na+].[Na+].[Na+].[Na+].[Na+].[Na+].[Na+]	0.23
Cc1cc(Cn2cc[n+](C)c2)c(Oc2c3c(c(C)c(C)[n+]2C)C2=Nc4c5c(Oc6c(Cn7cc[n+](C)c7)cc(C)cc6Cn6cc[n+](C)c6)[n+](C)c(C)c(C)c5c5[n]4[Zn][n]4c(c6c(C)c(C)[n+](C)c(Oc7c(Cn8cc[n+](C)c8)cc(C)cc7Cn7cc[n+](C)c7)c6c4=NC4=NC(=N5)c5c4c(C)c(C)[n+](C)c5Oc4c(Cn5cc[n+](C)c5)cc(C)cc4Cn4cc[n+](C)c4)=NC3=N2)c(Cn2cc[n+](C)c2)c1.[I-].[I-].[I-].[I-].[I-].[I-].[I-].[I-].[I-].[I-].[I-].[I-] [C11Zn]	0.21
O=S(=O)([O-])c1ccc(Oc2ccc3c(c2)C2=Cc4c5ccc(Oc6ccc(S(=O)(=O)[O-])c7cccnc67)cc5c5[n]4[Zn][n]4c(c6ccc(Oc7ccc(S(=O)(=O)[O-])c8cccnc78)cc6c4=CC3=N2)=CC2=NC(=C5)c3ccc(Oc4ccc(S(=O)(=O)[O-])c5cccnc45)cc32)c2ncccc12.[Na+].[Na+].[Na+].[Na+]	0.28

* * *

Assay: Fluorescence quantum yield, comparative method
Type: physicochemical
Details: in DMF; ZnPc as reference

mol_smiles	ΦF, fluorescence quantum yield
Cc1cc(Cn2cc[n+](C)c2)c(Oc2c3c(c(C)c(C)[n+]2C)C2=NC3=Nc3c4cc(SC(C)(C)C)c(SC(C)(C)C)cc4c4[n]3[Zn][n]3c(c5cc(SC(C)(C)C)c(SC(C)(C)C)cc5c3=N2)=NC2=NC(=N4)c3cc(SC(C)(C)C)c(SC(C)(C)C)cc32)c(Cn2cc[n+](C)c2)c1.[I-].[I-].[I-]	0.30
OCc1cc(CO)cc(OCCCCSC2=C(SCCCCOc3cc(CO)cc(CO)c3)C3=Nc4c5ccccc5c5[n]4[Mg][n]4c(c6ccccc6c4=NC4=NC(=N5)c5ccccc54)=NC2=N3)c1	0.16

Source of measurements: paper PMC12951568
